- study_target: CDK8/CycC (Homo sapiens)
- Construct: purchased Invitrogen PV4402
- experiment_summary: FRET based Lanthascreen binding competition assay for CDK8 inhibitory activity
- particulars: CDK8 co-expressed with CycC; class symbols; read-out: IC50
readout_type: IC50

Examples from the recorded data:
Provide IC50 value for the following compound: CN[C@@H]1C[C@@H](c2ccc(Cl)cc2)N(C(=O)c2cnc3[nH]nc(C)c3c2)C1 100 to 1000 nM

Provide IC50 value for the following compound: Cc1n[nH]c2ncc(C(=O)N3CCC[C@@H]3c3ccccc3)cc12 100 to 1000 nM

Provide IC50 value for the following compound: Cc1n[nH]c2ncc(C(=O)N3CCC[C@@H]3c3ccc(Br)cc3)cc12 100 to 1000 nM

Can you give me IC50 for all of these, one by one?
1. Cc1n[nH]c2ncc(C(=O)N3CCCC3c3ccc(Cl)c(Cl)c3)cc12 (centres unmarked)
2. Cc1n[nH]c2cc(F)c(C(=O)N3CCC[C@H]3c3ccc(Cl)cc3)cc12

["10 to 100 nM", "< 10 nM"]

###

- study_target: CDK8/CycC (Homo sapiens, UniProt P49336)
- Construct: purchased Invitrogen PV4402
- Sequence (P49336 whole entry): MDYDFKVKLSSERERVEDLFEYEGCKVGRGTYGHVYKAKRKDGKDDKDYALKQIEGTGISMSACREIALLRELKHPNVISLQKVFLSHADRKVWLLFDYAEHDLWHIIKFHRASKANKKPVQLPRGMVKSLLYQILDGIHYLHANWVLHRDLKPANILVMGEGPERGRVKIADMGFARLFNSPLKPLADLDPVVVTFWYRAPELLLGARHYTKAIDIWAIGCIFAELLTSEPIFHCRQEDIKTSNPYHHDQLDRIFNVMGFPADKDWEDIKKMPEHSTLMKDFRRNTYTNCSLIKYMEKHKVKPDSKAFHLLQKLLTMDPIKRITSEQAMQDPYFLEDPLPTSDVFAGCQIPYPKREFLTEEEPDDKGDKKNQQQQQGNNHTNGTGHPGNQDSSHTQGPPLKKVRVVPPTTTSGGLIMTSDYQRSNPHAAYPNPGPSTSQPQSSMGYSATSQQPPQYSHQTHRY
- Sequence (P24863 whole entry partner): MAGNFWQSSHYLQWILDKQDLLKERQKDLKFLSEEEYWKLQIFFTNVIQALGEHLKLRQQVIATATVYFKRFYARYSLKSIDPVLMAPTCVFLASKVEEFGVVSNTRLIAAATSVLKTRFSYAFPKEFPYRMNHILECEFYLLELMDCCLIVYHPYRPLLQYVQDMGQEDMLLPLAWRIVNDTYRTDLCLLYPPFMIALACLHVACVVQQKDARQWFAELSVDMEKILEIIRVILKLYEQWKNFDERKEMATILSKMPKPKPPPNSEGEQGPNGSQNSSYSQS
- experiment_summary: FRET based Lanthascreen binding competition assay for CDK8 inhibitory activity
- particulars: CDK8 co-expressed with CycC; class symbols; read-out: IC50
Field: IC50. Provide a value for each of the compounds that follow.

Provide IC50 value for the following compound: COc1cccc([C@H]2CCCN2C(=O)c2cnc3[nH]nc(C)c3c2)c1 1000 to 10000 nM

Provide IC50 value for the following compound: Cc1n[nH]c2ncc(C(=O)N3CCCCC(c4ccc(Cl)cc4)C3)cc12 (centres unmarked) 10 to 100 nM

Can you give me IC50 for all of these, one by one?
1. Cc1ccc(C2CCCN2C(=O)c2cnc3[nH]nc(C)c3c2)cc1 (centres unmarked)
2. Cc1n[nH]c2ncc(C(=O)N3CC(C)CC3c3ccc(C(F)(F)F)cc3)cc12 (centres unmarked)
3. CSc1ccccc1[C@H]1CCCN1C(=O)c1cnc2[nH]nc(C)c2c1
4. Cc1n[nH]c2ncc(C(=O)N3CC[C@H](C)C3c3ccc(C(F)(F)F)cc3)cc12 (stereo in doubt)
5. Cc1n[nH]c2ccc(C(=O)N3CCC[C@H]3c3ccc(F)cc3)nc12
6. O=C(c1ccc2[nH]ncc2c1)N1CCCC1c1ccc(Br)cc1 (racemic)
7. Cc1n[nH]c2ccc(C(=O)N3CCC[C@@H]3c3ccc(Br)cc3)cc12
8. Nc1n[nH]c2ncc(C(=O)N3CCC[C@H]3c3ccc(Cl)cc3)cc12

1. < 10 nM
2. 100 to 1000 nM
3. 100 to 1000 nM
4. 10 to 100 nM
5. < 10 nM
6. 10 to 100 nM
7. 100 to 1000 nM
8. 10 to 100 nM

Can you give me IC50 for all of these, one by one?
1. O=C(c1ccc2[nH]nc(F)c2c1)N1CCC[C@H]1c1ccc(Cl)cc1
2. Cc1n[nH]c2ncc(C(=O)N3C[C@H](N)C[C@H]3c3ccc(Cl)cc3)cc12
3. Nc1n[nH]c2ccc(C(=O)N3CCCCCC3c3ccc(Cl)cc3)cc12 (centres unmarked)
4. Nc1n[nH]c2ccc(C(=O)N3CCC[C@H]3c3ccc(C(F)(F)F)cc3)cc12
5. O=C(c1cnc2[nH]nc(C(F)(F)F)c2c1)N1CCCC1c1ccc(Cl)cc1 (centres unmarked) [compound 71]
6. Cc1n[nH]c2ncc(C(=O)N3CCC[C@H]3c3cccnc3)cc12

< 10 nM
100 to 1000 nM
100 to 1000 nM
10 to 100 nM
10 to 100 nM
100 to 1000 nM

Provide IC50 value for the following compound: Cc1n[nH]c2ncc(C(=O)N3CCC[C@@H]3c3ccc(Cl)c(F)c3)cc12 1000 to 10000 nM

###

- study_target: CDK8/CycC (Homo sapiens)
- Construct: purchased Invitrogen PV4402
- experiment_summary: FRET based Lanthascreen binding competition assay for CDK8 inhibitory activity
- particulars: CDK8 co-expressed with CycC; class symbols; read-out: IC50
pIC50: −log10 of the molar value.
readout_type: pIC50

Examples from the recorded data:
Provide pIC50 value for the following compound: Nc1n[nH]c2ccc(C(=O)N3CCCC3c3ccccc3Cl)cc12 (stereo not drawn) [compound 148] 6.00 to 7.00

Provide pIC50 value for the following compound: Cc1n[nH]c2ncc(C(=O)N3CC[C@H](c4ccccc4)C3)cc12 [compound 40] 6.00 to 7.00

Further cases:
Provide pIC50 value for the following compound: Cc1n[nH]c2ncc(C(=O)N3CCC[C@@H](c4ccccc4)C3)cc12 [compound 139] 6.00 to 7.00

###

- study_target: CDK8/CycC (Homo sapiens, UniProt P49336)
- Construct: purchased Invitrogen PV4402
- experiment_summary: FRET based Lanthascreen binding competition assay for CDK8 inhibitory activity
- particulars: CDK8 co-expressed with CycC; class symbols
pIC50: −log10 of the molar value.
readout_type: pIC50

Provide pIC50 value for the following compound: Cc1n[nH]c2ncc(C(=O)N3CCCC3c3ccccc3OCC(F)(F)F)cc12 (stereo not shown) [compound 162] 6.00 to 7.00

###

Field: pIC50. Provide a value for each of the compounds that follow.
- study_target: CDK8/CycC (Homo sapiens)
- Construct: purchased Invitrogen PV4402
- experiment_summary: FRET based Lanthascreen binding competition assay for CDK8 inhibitory activity
- particulars: CDK8 co-expressed with CycC; class symbols; read-out: IC50
pIC50: −log10 of the molar value.

Examples from the recorded data:
Fill in: pIC50 on CDK8/CycC (Homo sapiens), entry Cc1n[nH]c2ncc(C(=O)N3CCC[C@H]3c3cccc(C#N)c3)cc12 6.00 to 7.00

Fill in: pIC50 on CDK8/CycC (Homo sapiens), entry CS(=O)(=O)c1n[nH]c2ccc(C(=O)N3CCC[C@H]3c3ccc(Cl)cc3)cc12 7.00 to 8.00

Fill in: pIC50 on CDK8/CycC (Homo sapiens), entry Nc1n[nH]c2ccc(C(=O)N3CCCCCC3c3cccc(F)c3)cc12 (centres unmarked) 6.00 to 7.00

Fill in: pIC50 on CDK8/CycC (Homo sapiens), entry CC(=O)N[C@@H]1CN(C(=O)c2ccc3[nH]nc(N)c3c2)C[C@H]1c1ccc(Cl)cc1 (racemic) 7.00 to 8.00

Fill in: pIC50 on CDK8/CycC (Homo sapiens), entry Cc1n[nH]c2ncc(C(=O)N3CCC[C@H]3c3ccccc3Cl)cc12 7.00 to 8.00

Fill in: pIC50 on CDK8/CycC (Homo sapiens), entry CC(=O)N[C@@H]1CN(C(=O)c2cnc3[nH]nc(C)c3c2)C[C@H]1c1ccc(Cl)cc1 (racemic) 7.00 to 8.00

Can you give me pIC50 for all of these, one by one?
1. Cc1n[nH]c2ncc(C(=O)N3CCC[C@H]3c3ccc(Cl)cc3F)cc12
2. Cc1n[nH]c2ncc(C(=O)N3CCC3c3ccc(F)cc3)cc12 (centres unmarked)

> 8.00
6.00 to 7.00

###

Field: pIC50. Provide a value for each of the compounds that follow.
- study_target: CDK8/CycC (Homo sapiens)
- Construct: purchased Invitrogen PV4402
- experiment_summary: FRET based Lanthascreen binding competition assay for CDK8 inhibitory activity
- particulars: CDK8 co-expressed with CycC; class symbols; read-out: IC50
pIC50: −log10 of the molar value.

Examples from the recorded data:
Provide pIC50 value for the following compound: CCCc1n[nH]c2ccc(C(=O)N3CCCC3c3ccc(Cl)cc3)cc12 (centres unmarked) > 8.00

Provide pIC50 value for the following compound: COc1ccc([C@@H]2CCCN2C(=O)c2cnc3[nH]nc(C)c3c2)cc1 > 8.00

Provide pIC50 value for the following compound: CC(C)Cc1n[nH]c2ccc(C(=O)N3CCC[C@H]3c3ccc(Cl)cc3)cc12 > 8.00

Provide pIC50 value for the following compound: Cc1n[nH]c2ncc(C(=O)N3CC[C@@H]3c3ccc(F)cc3)cc12 6.00 to 7.00

Provide pIC50 value for the following compound: Cc1n[nH]c2ncc(C(=O)N3CCCCCC3c3cccc(F)c3)cc12 (centres unmarked) 7.00 to 8.00

Provide pIC50 value for the following compound: CCCc1n[nH]c2ccc(C(=O)N3CCC[C@@H]3c3ccc(Br)cc3)cc12 6.00 to 7.00

Can you give me pIC50 for all of these, one by one?
1. Cc1n[nH]c2ncc(C(=O)N3CCC[C@H]3c3ccc(Br)cc3)cc12
2. Cc1n[nH]c2ncc(C(=O)N3C[C@H](c4ccc(Cl)cc4)[C@@H](O)C3)cc12

["> 8.00", "> 8.00"]

###

- study_target: CDK8/CycC (Homo sapiens, UniProt P49336)
- Construct: purchased Invitrogen PV4402
- experiment_summary: FRET based Lanthascreen binding competition assay for CDK8 inhibitory activity
- particulars: CDK8 co-expressed with CycC; class symbols; read-out: IC50
pIC50: −log10 of the molar value.
readout_type: pIC50

Examples from the recorded data:
Provide pIC50 value for the following compound: Nc1n[nH]c2ccc(C(=O)N3CC[C@H](c4ccccc4)C3)cc12 [compound 87] 6.00 to 7.00

Provide pIC50 value for the following compound: Nc1n[nH]c2ccc(C(=O)N3CCC3c3ccc(Cl)cc3)cc12 (centres unmarked) [compound 104] 7.00 to 8.00

Provide pIC50 value for the following compound: Cc1n[nH]c2ncc(C(=O)N3CCC[C@H]3c3ccc(Cl)c(F)c3)cc12 [compound 227] > 8.00

Provide pIC50 value for the following compound: O=C(c1ccc2[nH]nc(Cl)c2c1)N1CCC(c2ccc(Cl)cc2)C1 (centres unmarked) [compound 218] 7.00 to 8.00

Provide pIC50 value for the following compound: Cc1n[nH]c2ncc(C(=O)N3C[C@H](O)C[C@H]3c3ccc(Cl)cc3)cc12 [compound 261] 6.00 to 7.00

Provide pIC50 value for the following compound: Cc1n[nH]c2ccc(C(=O)N3CCC[C@H]3c3ccc(C(F)(F)F)cc3)nc12 [compound 257] > 8.00

Provide pIC50 value for the following compound: Cc1n[nH]c2ncc(C(=O)N3CCC[C@H]3c3ccc(C(F)(F)F)cc3)cc12 [compound 157] > 8.00

In the following, a different compound is considered.
Provide pIC50 value for the following compound: Cc1n[nH]c2ncc(C(=O)N3CCCCC3Cc3ccccc3)cc12 (centres unmarked) [compound 19] 6.00 to 7.00
